Below is a list of entries, each paired with its recorded growth inhibition value.
- measurement_notes: NCI Yeast Anticancer Drug Screen. Data for the mec2-1 strain (AID 157)
- setup_conditions: S. cerevisiae mec2-1 strain, at 50.0 µM, active compounds read high
Compounds without any hit were thinned out: in the full panel of roughly 79,000, 15% have a hit.
Enter your answer as a number in %; do not include the unit.

Input: Supply recorded growth inhibition for Oc1ccc(N=Nc2ccccc2)cc1 here.
Output: 99.5

Input: Identify the reported growth inhibition for the following entry. CCOC(=O)N/N=C/c1ccc([N+](=O)[O-])o1
Output: 81.8

Input: // fetch growth inhibition given entry CC(/C=C/c1ccco1)=N\NC(=S)NCC(C)C
Output: 61.9

Input: Given Nc1c(Cl)[nH]c(C(F)(F)F)nc1=S , respond with its growth inhibition.
Output: -4.75

Input: Supply growth inhibition value. Item: Cc1ccc(NCCN(C)C)c2c(=O)c3ccc(O)cc3sc12
Output: 98.9
